# tested-on: Man(a1-6)Man
# measurement-protocol: glycan array binding signal (z-score within array); higher = stronger binding
# experimental-conditions: glycan notation: IUPAC condensed, linker removed
Many of the other results were omitted from the sample, so the strongest signals are more common in it than they were.
metric: glycan array binding signal (z-score)

1) Clone646PsrP (Streptococcus pneumoniae) (protein) MDHHHHHHHHASENLYFQGAPAINASLNIAKSETKVYTGEGVDSVYRVPIYYKLKVTNDGSKLTFTYTVTYVNPKTNDLGNISSMRPGYSIYNSGTSTQTMLTLGSDLGKPSGVKNYITDKNGRQVLSYNTSTMTTQGSGYTWGNGAQMNGFFAKKGYGLTSSWTVPITGTDTSFTFTPYAARTDRIGINYFNGGGKVVESSTTSQSLSQSKSLSVSAS	4.74
2) Apa (Mycobacterium tuberculosis), Rv1860 (protein) MHQVDPNLTRRKGRLAALAIAAMASASLVTVAVPATANADPEPAPPVPTTAASPPSTAAAPPAPATPVAPPPPAAANTPNAQPGDPNAAPPPADPNAPPPPVIAPNAPQPVRIDNPVGGFSFALPAGWVESDAAHFDYGSALLSKTTGDPPFPGQPPPVANDTRIVLGRLDQKLYASAEATDSKAAARLGSDMGEFYMPYPGTRINQETVSLDANGVSGSASYYEVKFSDPSKPNGQIWTGVIGSPAANAPDAGPPQRWFVVWLGTANNPVDKGAAKALAESIRPLVAPPPAPAPAPAEPAPAPAPAGEVAPTPTTPTPQRTLPA	-0.69
3) MIC1 (Toxoplasma gondii), O00834 (protein) VGPEAYGEASHSHSPASGRYIQQMLDQRCQEIAAELCQSGLRKMCVPSSRIVARNAVGITHQNTLQWRCFDTASLLESNQENNGVNCVDDCGHTIPCPGGVHRQNSNHATRHEILSKLVEEGVQRFCSPYQASANKYCNDKFPGTIARRSKGFGNNVEVAWRCYEKASLLYSVYAECASNCGTTWYCPGGRRGTSTELDKRHYTEEEGIRQAIGSVDSPCSEVEVCLPKDENPPLCLDESGQISRT	-0.312
